# testedOn: DPP-9 (Homo sapiens, UniProt Q86TI2)
# Sequence (Q86TI2 whole entry): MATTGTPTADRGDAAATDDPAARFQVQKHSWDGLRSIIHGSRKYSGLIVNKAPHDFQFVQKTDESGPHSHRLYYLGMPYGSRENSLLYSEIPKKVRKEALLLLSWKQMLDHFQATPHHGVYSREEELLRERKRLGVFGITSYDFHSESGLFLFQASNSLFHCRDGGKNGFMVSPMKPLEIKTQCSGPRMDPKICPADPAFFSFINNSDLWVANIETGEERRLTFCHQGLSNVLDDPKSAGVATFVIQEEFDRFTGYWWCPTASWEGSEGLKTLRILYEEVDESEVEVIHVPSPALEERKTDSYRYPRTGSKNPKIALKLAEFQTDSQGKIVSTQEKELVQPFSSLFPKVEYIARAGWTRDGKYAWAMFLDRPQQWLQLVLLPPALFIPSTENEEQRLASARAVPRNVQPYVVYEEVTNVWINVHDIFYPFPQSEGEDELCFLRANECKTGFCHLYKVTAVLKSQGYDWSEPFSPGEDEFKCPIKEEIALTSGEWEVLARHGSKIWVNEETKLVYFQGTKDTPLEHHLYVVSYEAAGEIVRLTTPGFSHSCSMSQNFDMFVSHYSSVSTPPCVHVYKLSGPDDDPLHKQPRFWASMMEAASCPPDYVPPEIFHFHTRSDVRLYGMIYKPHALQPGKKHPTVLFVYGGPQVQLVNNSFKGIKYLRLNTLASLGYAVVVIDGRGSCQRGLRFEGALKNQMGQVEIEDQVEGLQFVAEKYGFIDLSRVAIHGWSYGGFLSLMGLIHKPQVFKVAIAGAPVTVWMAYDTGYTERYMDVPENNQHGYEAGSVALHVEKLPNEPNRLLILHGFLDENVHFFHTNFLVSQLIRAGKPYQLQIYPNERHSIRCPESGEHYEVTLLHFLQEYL
IC50 strictly under 300 nM means 1.0; at 300 nM or over means 0.0.

compound | group
CC(=O)O[C@@H]1C[C@@H]2C[C@@](C)(NCC(=O)N3C[C@@H](F)C[C@H]3C#N)C[C@@H]2C1 [Example 17] | 1.0
C[C@@]1(NCC(=O)N2CCC[C@H]2C#N)C[C@H]2C[C@@H](O)C[C@H]2C1 [Example 5] | 0.0
CCO[C@@H]1C[C@@H]2C[C@@](C)(NCC(=O)N3CCC[C@H]3C#N)C[C@@H]2C1 [Example 6] | 1.0
CO[C@@H]1C[C@@H]2C[C@@](C)(NCC(=O)N3CCC[C@H]3C#N)C[C@@H]2C1 [Example 1] | 0.0
C[C@@]1(NCC(=O)N2C[C@@H](F)C[C@H]2C#N)C[C@H]2C[C@H](O)C[C@H]2C1 [Example 9] | 1.0
C[C@@]1(NCC(=O)N2CCC[C@H]2C#N)C[C@H]2CC(C#N)C[C@H]2C1 (stereo partly drawn) [Example 16] | 0.0

----------
# testedOn: DPP-IV (Homo sapiens)
# Sequence (P27487 whole entry): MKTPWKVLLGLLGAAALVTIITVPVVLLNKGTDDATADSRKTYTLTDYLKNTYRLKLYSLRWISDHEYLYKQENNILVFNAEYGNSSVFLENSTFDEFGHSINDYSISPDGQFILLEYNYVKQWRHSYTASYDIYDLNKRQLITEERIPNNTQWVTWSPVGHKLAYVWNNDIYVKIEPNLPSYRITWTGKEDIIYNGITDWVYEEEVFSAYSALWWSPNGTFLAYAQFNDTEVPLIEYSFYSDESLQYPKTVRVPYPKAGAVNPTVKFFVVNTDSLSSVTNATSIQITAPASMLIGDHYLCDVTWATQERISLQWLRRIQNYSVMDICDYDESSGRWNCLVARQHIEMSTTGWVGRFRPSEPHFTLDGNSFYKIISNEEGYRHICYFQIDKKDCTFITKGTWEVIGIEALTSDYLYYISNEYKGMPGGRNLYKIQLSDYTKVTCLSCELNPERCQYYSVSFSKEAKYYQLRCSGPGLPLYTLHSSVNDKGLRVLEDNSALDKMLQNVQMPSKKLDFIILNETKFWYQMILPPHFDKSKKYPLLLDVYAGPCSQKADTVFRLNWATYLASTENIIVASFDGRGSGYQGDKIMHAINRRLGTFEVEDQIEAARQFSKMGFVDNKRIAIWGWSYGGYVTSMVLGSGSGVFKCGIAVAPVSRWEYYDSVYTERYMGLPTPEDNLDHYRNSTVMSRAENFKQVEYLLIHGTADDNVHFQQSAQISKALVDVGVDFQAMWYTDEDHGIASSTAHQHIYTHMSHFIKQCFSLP
Categories are assigned from the measured IC50 using these intervals: lower bin (below 4 nM), middle bin (4 nM to below 9 nM), upper bin (9 nM or more)

compound | testedOn | group
C[C@@]1(NCC(=O)N2C[C@@H](F)C[C@H]2C#N)C[C@H]2C[C@@H](OCC3CC3)C[C@H]2C1 | DPP-IV (Homo sapiens) | middle bin
C[C@@]1(NCC(=O)N2C[C@@H](F)C[C@H]2C#N)C[C@H]2CC3(CCO3)C[C@H]2C1 (stereo partly shown) | DPP-IV (Homo sapiens) | upper bin
CCO[C@@H]1C[C@@H]2C[C@@](C)(NCC(=O)N3C[C@@H](F)C[C@H]3C#N)C[C@@H]2C1 | DPP-IV (Homo sapiens) | middle bin
CCO[C@@H]1C[C@@H]2C[C@@](C)(NCC(=O)N3CCC[C@H]3C#N)C[C@@H]2C1 | DPP-IV (Homo sapiens) | middle bin
CC(=O)O[C@@H]1C[C@@H]2C[C@@](C)(NCC(=O)N3C[C@@H](F)C[C@H]3C#N)C[C@@H]2C1 | DPP-IV (Homo sapiens) | lower bin
C[C@@]1(NCC(=O)N2C3C[C@H]3C[C@H]2C#N)C[C@H]2C[C@@H](O)C[C@H]2C1 (stereo partly shown) | DPP-IV (Homo sapiens) | upper bin
C#CC1C[C@@H]2C[C@@](C)(NCC(=O)N3C[C@@H](F)C[C@H]3C#N)C[C@@H]2C1 (stereo partly shown) | DPP-IV (Homo sapiens) | middle bin
CO[C@@H]1C[C@@H]2CC(NCC(=O)N3C[C@@H](F)C[C@H]3C#N)C3(CC3)[C@@H]2C1 (stereo partly shown) | DPP-IV (Homo sapiens) | upper bin
CO[C@H]1C[C@@H]2C[C@@](C)(NCC(=O)N3C[C@@H](F)C[C@H]3C#N)C[C@@H]2C1 | DPP-IV (Homo sapiens) | lower bin

----------
# testedOn: DPP-8 (Homo sapiens, UniProt Q6V1X1)
# Sequence (Q6V1X1 whole entry): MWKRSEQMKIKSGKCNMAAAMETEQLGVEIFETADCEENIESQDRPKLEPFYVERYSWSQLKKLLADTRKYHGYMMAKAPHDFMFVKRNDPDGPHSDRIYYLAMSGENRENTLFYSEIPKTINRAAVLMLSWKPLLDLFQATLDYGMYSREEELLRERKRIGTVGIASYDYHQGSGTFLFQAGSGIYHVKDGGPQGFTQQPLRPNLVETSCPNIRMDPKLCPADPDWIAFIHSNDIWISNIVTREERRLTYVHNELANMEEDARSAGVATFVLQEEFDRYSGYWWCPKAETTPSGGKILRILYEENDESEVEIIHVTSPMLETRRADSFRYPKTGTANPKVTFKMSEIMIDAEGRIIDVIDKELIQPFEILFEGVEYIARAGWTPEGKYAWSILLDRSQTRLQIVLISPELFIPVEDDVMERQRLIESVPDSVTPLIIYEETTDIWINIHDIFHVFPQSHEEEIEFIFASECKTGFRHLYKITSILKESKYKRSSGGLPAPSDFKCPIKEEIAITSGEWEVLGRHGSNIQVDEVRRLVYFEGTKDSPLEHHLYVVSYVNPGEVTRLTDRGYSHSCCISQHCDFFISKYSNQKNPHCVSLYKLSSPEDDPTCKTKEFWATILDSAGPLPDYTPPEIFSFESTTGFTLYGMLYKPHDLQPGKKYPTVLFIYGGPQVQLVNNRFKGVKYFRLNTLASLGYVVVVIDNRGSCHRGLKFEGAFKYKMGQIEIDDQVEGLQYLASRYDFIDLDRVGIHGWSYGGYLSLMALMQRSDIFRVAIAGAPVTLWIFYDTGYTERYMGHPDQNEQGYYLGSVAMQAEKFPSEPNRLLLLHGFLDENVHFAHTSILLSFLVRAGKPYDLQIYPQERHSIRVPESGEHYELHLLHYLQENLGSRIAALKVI
The entries below come with measured IC50 values attached.
quantityKind: IC50 (µM)

molecule | testedOn | uom | recordedValue
C[C@@]1(NCC(=O)N2C[C@@H](F)C[C@H]2C#N)C[C@H]2C[C@@H](OCC3CC3)C[C@H]2C1 | DPP-8 (Homo sapiens, UniProt Q6V1X1) | µM | 3.8
CO[C@@H]1C[C@@H]2CC(NCC(=O)N3C[C@@H](F)C[C@H]3C#N)C3(CC3)[C@@H]2C1 (some centres unmarked) | DPP-8 (Homo sapiens, UniProt Q6V1X1) | µM | 14.2
CC(=O)O[C@@H]1C[C@@H]2C[C@@](C)(NCC(=O)N3C[C@@H](F)C[C@H]3C#N)C[C@@H]2C1 | DPP-8 (Homo sapiens, UniProt Q6V1X1) | µM | 3.7
C#CC1C[C@@H]2C[C@@](C)(NCC(=O)N3C[C@@H](F)C[C@H]3C#N)C[C@@H]2C1 (some centres unmarked) | DPP-8 (Homo sapiens, UniProt Q6V1X1) | µM | 2.07
CO[C@@H]1C[C@@H]2C[C@@](C)(NCC(=O)N3C[C@@H](F)C[C@H]3C#N)C[C@@H]2C1 | DPP-8 (Homo sapiens, UniProt Q6V1X1) | µM | 1.58
CC(=O)O[C@@H]1C[C@@H]2C[C@@](C)(NCC(=O)N3CCC[C@H]3C#N)C[C@@H]2C1 | DPP-8 (Homo sapiens, UniProt Q6V1X1) | µM | 20.1
C[C@@]1(NCC(=O)N2C[C@@H](F)C[C@H]2C#N)C[C@H]2C[C@H](O)C[C@H]2C1 | DPP-8 (Homo sapiens, UniProt Q6V1X1) | µM | 2.85
CO[C@H]1C[C@@H]2C[C@@](C)(NCC(=O)N3CCC[C@H]3C#N)C[C@@H]2C1 | DPP-8 (Homo sapiens, UniProt Q6V1X1) | µM | 5.98
